All figures here come from patent US9518052B2.

Where a name gives a salt, the structure may show the parent alone.
Below are compounds with their IC50 as measured on TYK2 (Homo sapiens (Human)).
Sequence (P29597 whole entry, species assumed): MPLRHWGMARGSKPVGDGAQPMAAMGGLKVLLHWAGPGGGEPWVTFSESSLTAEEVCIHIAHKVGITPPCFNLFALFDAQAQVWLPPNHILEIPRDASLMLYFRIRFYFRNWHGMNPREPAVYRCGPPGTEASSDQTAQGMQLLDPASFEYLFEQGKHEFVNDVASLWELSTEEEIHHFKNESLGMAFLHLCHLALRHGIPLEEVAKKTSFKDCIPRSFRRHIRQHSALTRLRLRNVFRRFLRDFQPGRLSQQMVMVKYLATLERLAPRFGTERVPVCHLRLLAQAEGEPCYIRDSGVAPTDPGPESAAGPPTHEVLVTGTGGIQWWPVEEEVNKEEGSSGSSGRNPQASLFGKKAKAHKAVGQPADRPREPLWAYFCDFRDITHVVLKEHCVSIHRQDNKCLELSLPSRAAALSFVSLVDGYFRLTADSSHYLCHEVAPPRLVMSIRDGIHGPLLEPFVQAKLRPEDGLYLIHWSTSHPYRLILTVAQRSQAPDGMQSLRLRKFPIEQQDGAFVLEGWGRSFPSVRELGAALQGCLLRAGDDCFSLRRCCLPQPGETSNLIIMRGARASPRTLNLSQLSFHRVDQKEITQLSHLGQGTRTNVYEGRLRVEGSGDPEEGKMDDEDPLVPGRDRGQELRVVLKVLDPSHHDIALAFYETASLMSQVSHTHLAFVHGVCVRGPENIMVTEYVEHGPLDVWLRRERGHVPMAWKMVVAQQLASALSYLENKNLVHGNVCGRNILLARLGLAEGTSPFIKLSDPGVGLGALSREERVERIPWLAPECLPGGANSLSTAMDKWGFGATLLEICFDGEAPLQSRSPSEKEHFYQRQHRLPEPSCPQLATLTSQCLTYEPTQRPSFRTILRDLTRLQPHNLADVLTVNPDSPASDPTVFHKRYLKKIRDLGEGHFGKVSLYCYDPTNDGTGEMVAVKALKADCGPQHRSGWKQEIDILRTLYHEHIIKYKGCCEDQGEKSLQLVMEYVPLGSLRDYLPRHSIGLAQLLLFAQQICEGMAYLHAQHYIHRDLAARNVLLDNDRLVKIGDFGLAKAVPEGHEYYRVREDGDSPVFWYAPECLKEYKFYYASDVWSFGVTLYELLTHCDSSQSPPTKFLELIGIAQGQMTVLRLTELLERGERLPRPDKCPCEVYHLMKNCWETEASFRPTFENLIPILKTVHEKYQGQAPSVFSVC
Measured endpoint: IC50 (nM)

A. CN(c1ccccc1CNc1nc(-c2cc(F)c(O)cc2CC(F)(F)F)cc2[nH]nc(C(N)=O)c12)S(=O)(=O)c1cccnc1
B. CCc1cc(O)ccc1-c1cc2[nH]ncc2c(N2CC(C)(O)C2)n1
C. CCc1cc(O)ccc1-c1cc2[nH]ncc2c(N2CCc3c(cccc3NS(C)(=O)=O)C2)n1 [Example 123, formate]
D. CCc1cc(O)c(F)cc1-c1nc(NCc2ccccc2N(C)S(C)(=O)=O)c2c(C(=O)NC)n[nH]c2n1
Enquiry: Sort by IC50 with smallest numbers at the start of the list. Answer format: list of labels, ordered as asked.
Return: D, A, C, B
